# target-desc: furin, P09958;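 also: purified furin at 1:10 enzyme:substrate in 50 mM HEPES pH 7.5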
# Sequence (P09958 whole entry): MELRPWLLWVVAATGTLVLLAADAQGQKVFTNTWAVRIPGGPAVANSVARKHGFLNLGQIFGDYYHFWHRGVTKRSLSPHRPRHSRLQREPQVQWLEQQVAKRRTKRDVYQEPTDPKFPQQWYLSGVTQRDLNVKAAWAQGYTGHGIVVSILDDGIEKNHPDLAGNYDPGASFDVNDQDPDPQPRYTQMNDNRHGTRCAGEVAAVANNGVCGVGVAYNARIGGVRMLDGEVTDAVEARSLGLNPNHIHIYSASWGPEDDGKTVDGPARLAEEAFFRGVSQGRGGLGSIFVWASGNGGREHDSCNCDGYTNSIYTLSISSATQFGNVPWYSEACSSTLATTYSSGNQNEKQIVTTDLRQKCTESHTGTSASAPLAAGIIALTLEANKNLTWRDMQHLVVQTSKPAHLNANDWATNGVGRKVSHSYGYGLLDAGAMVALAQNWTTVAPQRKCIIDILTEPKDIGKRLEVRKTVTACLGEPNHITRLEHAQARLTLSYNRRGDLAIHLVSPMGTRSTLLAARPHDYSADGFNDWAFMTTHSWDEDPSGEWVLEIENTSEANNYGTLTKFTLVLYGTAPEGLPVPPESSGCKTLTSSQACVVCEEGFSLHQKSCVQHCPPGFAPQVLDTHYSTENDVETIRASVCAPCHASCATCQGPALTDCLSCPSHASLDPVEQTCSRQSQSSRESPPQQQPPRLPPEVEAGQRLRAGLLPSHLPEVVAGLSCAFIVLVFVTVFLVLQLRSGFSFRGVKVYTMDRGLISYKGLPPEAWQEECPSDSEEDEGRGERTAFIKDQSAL
# test-details: furin cleavage Z-score vs untreated control; higher = more cleavage, active = 3.5 or more, inactive = 1 or less, 8 variable residues between constant flanks
# run-parameters: 15 min
This is one part of the list. No count for the full screen is at hand.
Respond with a class label; see true = active, false = inactive

Sample answers from the record:
{"columns": ["sequence-chain", "label-value"],
 "data": [
  ["CARLRRQKLSAGNASASA [FS-2576]", "false"],
  ["CARLRRVVGQAGNASASA [FS-1747]", "false"],
  ["CARLRRDTQQAGNASASA [FS-2494]", "true"],
  ["CAPSNRSARAAGNASASA [FS-1245]", "true"],
  ["CAEPPRPRRGAGNASASA [FS-992]", "false"],
  ["CAFDVVCCSMAGNASASA [HC2107]", "false"]
]}

Exam item: Check the results log: what was the call for CAYGAGVAGAAGNASASA [HC1088] ?
Marked response: false

Exam item: Check the results log: what was the call for CAAACGDIINAGNASASA [HC656] ?
Marked response: false

Exam item: Check the results log: what was the call for CALIAFASRGAGNASASA [HC1120] ?
Marked response: false

Exam item: Check the results log: what was the call for CAPEIRQARAAGNASASA [FS-1043] ?
Marked response: true

Exam item: Check the results log: what was the call for CAPIIRKSRGAGNASASA [FS-1472] ?
Marked response: true

Exam item: Check the results log: what was the call for CARLRREPGGAGNASASA [FS-2713] ?
Marked response: false

Exam item: Check the results log: what was the call for CAAMFRVRRNAGNASASA [FS-5] ?
Marked response: true

Exam item: Check the results log: what was the call for CAREIRQAFKAGNASASA [FS-2912] ?
Marked response: false
